System: OVCAR-5
observation-type: GI50 (nM)
Entry rule: numbers only, all in nM.

The examples below pair each entry with its known result.
COc1ccc2[nH]c(-c3cc(-c4cc(OC)c(OC)c(OC)c4)n[nH]3)nc2c1 ... 3030
COc1cc(-c2cc(-c3nc4ccccc4[nH]3)[nH]n2)cc(OC)c1OC ... 1300

// field: GI50; key: Fc1ccc2[nH]c(-c3cc(-c4ccc5c(c4)OCO5)n[nH]3)nc2c1 ; value = 6440

// field: GI50; key: c1ccc2[nH]c(-c3cc(-c4ccc5c(c4)OCO5)n[nH]3)nc2c1 ; value = 1490

// field: GI50; key: COc1cc(-c2cc(-c3nc4cc(Cl)ccc4[nH]3)[nH]n2)cc(OC)c1OC ; value = 1210

// field: GI50; key: COc1cc(-c2cc(-c3nc4cc(Cl)c(Cl)cc4[nH]3)[nH]n2)cc(OC)c1OC [10f] ; value = 7080
